- TARGET: T1, hBMPR1B-His (human BMPR1B extracellular domain, residues K14 to R126, with C-terminal 9x-Histidine tag) (human, UniProt O00238 14-126)
- T1 construct: Residues K14-R126 are counted on the hBMPR1B ORF (NM_001203); The IgK signal peptide of the vector is left out; also called hBMPR1B-CHis; human BMPR1B-his
- T1 sequence: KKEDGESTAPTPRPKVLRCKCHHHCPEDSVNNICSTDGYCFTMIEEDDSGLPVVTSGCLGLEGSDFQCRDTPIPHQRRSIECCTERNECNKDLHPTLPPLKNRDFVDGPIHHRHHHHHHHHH
- TEST METHOD NOTES: Biacore
pKd: −log10 of the molar value.
READOUT KIND: pKd

* SC91.20 (antibody, V domains shown) VH: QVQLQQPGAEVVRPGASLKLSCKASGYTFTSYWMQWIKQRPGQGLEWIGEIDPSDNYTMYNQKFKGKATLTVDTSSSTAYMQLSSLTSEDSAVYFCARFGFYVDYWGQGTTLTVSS VL: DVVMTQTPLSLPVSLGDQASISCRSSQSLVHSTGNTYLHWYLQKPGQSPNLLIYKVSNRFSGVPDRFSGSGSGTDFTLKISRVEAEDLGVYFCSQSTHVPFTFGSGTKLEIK | 9.03
* SC91.27 (murine anti-BMPR1B antibody) (antibody, V domains shown, Murine hybridoma antibody with the same VL as SC91.20) VH: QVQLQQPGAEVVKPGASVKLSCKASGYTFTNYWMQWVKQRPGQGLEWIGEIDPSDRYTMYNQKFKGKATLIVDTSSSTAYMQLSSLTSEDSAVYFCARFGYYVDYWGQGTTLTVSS VL: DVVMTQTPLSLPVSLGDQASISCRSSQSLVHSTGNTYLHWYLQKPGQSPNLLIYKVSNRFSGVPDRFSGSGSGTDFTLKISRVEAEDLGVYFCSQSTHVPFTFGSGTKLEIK | 8.70
